IC50: recorded values
Target: human CD38 (Homo sapiens)
Sequence (P28907 whole entry): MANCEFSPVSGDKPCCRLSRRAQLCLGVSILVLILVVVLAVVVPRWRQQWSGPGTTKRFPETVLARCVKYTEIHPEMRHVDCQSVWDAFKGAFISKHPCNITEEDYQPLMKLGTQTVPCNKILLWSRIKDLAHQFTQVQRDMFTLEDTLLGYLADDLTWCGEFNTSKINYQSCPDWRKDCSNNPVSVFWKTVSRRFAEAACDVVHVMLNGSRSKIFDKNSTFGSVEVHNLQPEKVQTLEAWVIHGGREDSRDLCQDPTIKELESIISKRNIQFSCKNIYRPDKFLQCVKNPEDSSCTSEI
Assay: human recombinant CD38 enzyme assay (hydrolysis of NAD+)
Conditions: human recombinant CD38, 0.4 nM enzyme, 62.5 μM NAD+; read-out: hCD38 BioChem IC50

[
  {
    "Compound": "Cn1cncc1-c1ccnc(C(=O)Nc2ccc(OC3CC(F)(F)C3)nc2)n1 [Compound 319]",
    "Target or test system": "human CD38 (Homo sapiens)",
    "IC50 [nM]": 3.6
  },
  {
    "Compound": "O=C(N[C@H]1C[C@@H](c2ccc(C(F)(F)F)nc2)C1)c1nccc(-n2ccnc2)n1 [Compound 272]",
    "Target or test system": "human CD38 (Homo sapiens)",
    "IC50 [nM]": 1340
  },
  {
    "Compound": "Cn1cncc1-c1ccnc(C(=O)N[C@H]2CC[C@H](C)CC2)n1 [Compound 149]",
    "Target or test system": "human CD38 (Homo sapiens)",
    "IC50 [nM]": 43
  },
  {
    "Compound": "Cn1cncc1-c1cc(C(C)(C)C)nc(C(=O)Nc2ccc(C(F)F)nc2)n1 [Compound 189]",
    "Target or test system": "human CD38 (Homo sapiens)",
    "IC50 [nM]": 333
  }
]
